# Tested on: K4 kissing-loop RNA reporter;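 further: bound reporter read as fluorescence of individual clusters on recovered sequencing chips by microscopy, with normalized cluster intensities fitted with a binding model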
# Measurement protocol: apparent KD of K4 kissing-loop reporter; higher = weaker reporter binding
# Stated conditions: Eterna round: R107; input ligand: tryptophan 2.4 mM
Below: a set of entries, each annotated with reported apparent KD of K4 kissing-loop reporter.
Measurement kind: apparent KD of K4 kissing-loop reporter

Macromolecule sequence	Measurement kind	Reported measurement
AUUUGUUUAUGCGAUACCAGACUAAGCAGUGAUGUUGCUUUUAUUUUUGAAUUUUAAAUAGUCCCUUGGCAGCGCUAUGUCUGUA [#06 K4 Theophylline B Same State]	apparent KD of K4 kissing-loop reporter	119 nM
AGGGUUUAGGACGAUACCAGCCUGGAGGCCAGUGAUGUUGGCCGAUUUGAACAGAAUUAAGGCCCUUGGCAGCGUAUCUAAAACC [Esamaza]	apparent KD of K4 kissing-loop reporter	259 nM
AAAUCGUUCAGAAGGAGCGUGGUAUAAUCAUUAAUAUUUAUUACGAGUGAUGUUCGUAAUUCACAGGUAGGUCGCUGAUCGAUAA [JR_SSArginiB_Sub006]	apparent KD of K4 kissing-loop reporter	82.7 nM
GGAUAGGACAAAGGAUAUGGUAGUGAUGUUACCAAACUGGUUAAACAUGUCAGAAAACUGGCAUGACCAGAAGGUUGUCCUAUCG [FmnBX 27 A11+U75]	apparent KD of K4 kissing-loop reporter	66.9 nM
UGUCAUUGGUCGGCCGCCACUUCAUAAAGAGUGAUGUUCUUAAAGACGGAUCGAAAGAUCUGUCGAAGGACCGGGACCGAUGACU [FiskerMod 8 - Jieux - Same State - Tryptophan B]	apparent KD of K4 kissing-loop reporter	196 nM
GUCUAGCUAGCAGGAUAUAGCUGGUAGUGAUGUUACCACUAGAACUCUGCGGAAACGCAGAGUAUCCUAGAAGGGCUAGCUAGAC	apparent KD of K4 kissing-loop reporter	66.8 nM

Sourced from the supplement of paper PMC9170038
